- protocol text: Compound cytotoxicity, XTT-based colorimetric assay
- Format: cell-based
- particulars: human; uninfected MT2 cells, day 4, XTT; read-out: CC50
Readings of CC50 at 4 days for the listed compounds

// solved cases for CC50 at 4 days follow
* Cn1nc(NS(C)(=O)=O)c2c(Cl)ccc(-n3c([C@H](Cc4cc(F)cc(F)c4)NC(=O)Cn4nc(C(F)F)c5c4C(F)(F)[C@@H]4C[C@H]54)nc4cc(N5CCC(C)(C)CC5)ccc4c3=O)c21 (atropisomer, axis not shown; (P)) [Example 1] | > 500 nM
* Cn1nc(NS(C)(=O)=O)c2c(Cl)ccc(-n3c([C@H](Cc4cc(F)cc(F)c4)NC(=O)Cn4nc(C(F)F)c5c4C(F)(F)[C@@H]4C[C@H]54)nc4cc(N5CCOCC5)ccc4c3=O)c21 (atropisomer, axis not shown; (P)) [Example 12] | > 1000 nM
* C[C@@H]1CN(c2ccc3c(=O)n(-c4ccc(Cl)c5c(NS(C)(=O)=O)nn(C)c45)c([C@H](Cc4cc(F)cc(F)c4)NC(=O)Cn4nc(C(F)F)c5c4C(F)(F)[C@@H]4C[C@H]54)nc3c2)C[C@H](C)N1C (atropisomer, axis not shown; (P)) [Example 16] | > 1000 nM

Would you kindly share the measured CC50 at 4 days for C[C@@H]1CN(c2ccc3c(=O)n(-c4ccc(Cl)c5c(NS(C)(=O)=O)nn(CC(F)F)c45)c([C@H](Cc4cc(F)cc(F)c4)NC(=O)Cn4nc(C(F)(F)F)c5ccccc54)nc3c2)C[C@H](C)O1 (atropisomer, axis not shown; (P)) [Example 43] ?
> 500 nM

Give the measured CC50 at 4 days of Cn1nc(NS(C)(=O)=O)c2c(Cl)ccc(-n3c([C@H](Cc4cc(F)cc(F)c4)NC(=O)Cn4nc(C(F)F)c5c4C(F)(F)[C@@H]4C[C@H]54)nc4cc(NCC(F)(F)F)ccc4c3=O)c21 (atropisomer, axis not shown; (P)) [Example 42] .
> 1000 nM
